tested on: p53DsRed reporter in PG3/9 melanoma cells (A375 clone); test: p53DsRed reporter activation assay (in vitro p53 activity assay); type: cell-based; conditions: Homo sapiens, A-375; PG3/9 melanoma cells, 24 hours; read-out: effective concentration (EC50), p53DsRed reporter activation
pEC50: −log10 of the molar value.
Decide using pEC50: a value greater than or equal to 6 is yes (1), a smaller one is no (0).

CN(C)CCNC(=O)c1cccn2c(=O)c3cc4ccccc4cc3nc12 = yes (1)
CCOc1ccc(C2=CC(c3cc(OC)c(OC)c(OC)c3)n3ncnc3N2)cc1 (centres unmarked) = yes (1)
Cc1sc2nc3c4ccccc4c(NCCCN(C)C)nn3c(=O)c2c1C = no (0)

Textbook exercise: given the entry CCOC(=O)c1cnc2c(C)cc(C)cc2c1NCCCN(C)C , state whether its pEC50 is greater than or equal to 6.
no (0)

Textbook exercise: given the entry COc1cccc2c(N)c3c(cnn3C)nc12 , state whether its pEC50 is greater than or equal to 6.
no (0)
